# system: Adenosine receptor A3 (Homo sapiens)
# Sequence (P0DMS8 whole entry): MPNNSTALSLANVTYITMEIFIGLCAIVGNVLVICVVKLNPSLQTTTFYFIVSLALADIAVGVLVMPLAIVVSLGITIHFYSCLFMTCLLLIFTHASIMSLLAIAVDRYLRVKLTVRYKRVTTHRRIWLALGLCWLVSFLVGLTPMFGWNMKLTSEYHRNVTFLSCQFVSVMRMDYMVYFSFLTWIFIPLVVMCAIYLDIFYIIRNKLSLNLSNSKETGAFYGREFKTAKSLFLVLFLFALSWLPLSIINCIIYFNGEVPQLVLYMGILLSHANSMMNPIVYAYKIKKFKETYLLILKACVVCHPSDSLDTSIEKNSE
Can you tell me pKi for the items I'm about to list?
One number for each entry, as −log10 of the molar value.

Example results:
O[C@@H]1[C@H](O)[C@@H]2C[C@@H]2[C@H]1n1cnc2c(N[C@H]3C[C@@H]3c3ccccc3)nc(C#Cc3ccc(Cl)s3)nc21
7.09
O[C@@H]1[C@H](O)[C@@H]2C[C@@H]2[C@H]1n1cnc2c(NCCc3cccc(F)c3)nc(C#Cc3ccc(F)s3)nc21
7.25
COc1cc(CCNc2nc(C#Cc3cccnc3)nc3c2ncn3[C@H]2[C@H](O)[C@H](O)[C@@H]3C[C@@H]32)ccc1O
8.17
COc1ccc(CCNc2nc(C#Cc3ccccc3)nc3c2ncn3[C@H]2[C@H](O)[C@H](O)[C@@H]3C[C@@H]32)cc1O
8.16
Oc1ccc(CCNc2nc(C#Cc3ccccc3)nc3c2ncn3[C@H]2[C@H](O)[C@H](O)[C@@H]3C[C@@H]32)cc1
7.34
Nc1ccc(CCNc2nc(C#Cc3ccccc3)nc3c2ncn3[C@H]2[C@H](O)[C@H](O)[C@@H]3C[C@@H]32)cc1
7.85

Next up:
Qu. Look up pKi: COc1cc(CCNc2nc(C#Cc3ccc(F)cc3)nc3c2ncn3[C@H]2[C@H](O)[C@H](O)[C@@H]3C[C@@H]32)ccc1O
Ans. 8.19

---

# system: Adenosine receptor A2a (Homo sapiens)
# Sequence (P29274 whole entry): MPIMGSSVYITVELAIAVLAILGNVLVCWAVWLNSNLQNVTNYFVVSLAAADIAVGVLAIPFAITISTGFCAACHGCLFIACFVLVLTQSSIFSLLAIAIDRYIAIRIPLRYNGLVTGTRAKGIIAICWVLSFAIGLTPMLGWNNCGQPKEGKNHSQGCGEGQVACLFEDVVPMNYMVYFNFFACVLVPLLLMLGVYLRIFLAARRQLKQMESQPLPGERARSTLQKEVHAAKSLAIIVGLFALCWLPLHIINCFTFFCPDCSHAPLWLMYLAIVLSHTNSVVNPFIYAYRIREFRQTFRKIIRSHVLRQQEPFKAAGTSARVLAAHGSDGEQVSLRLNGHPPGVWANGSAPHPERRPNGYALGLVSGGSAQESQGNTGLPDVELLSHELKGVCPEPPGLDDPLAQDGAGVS
# assay-explanation: Displacement of [3H]CGS21680 from recombinant human A2AAR expressed in HEK293 cell membranes at 10 uM measured after 60 mins by liquid scintillation counting method relative to control
Output T for inhibition not less than 40%; output F otherwise.

O[C@@H]1[C@H](O)[C@@H]2C[C@@H]2[C@H]1n1cnc2c(N[C@H]3C[C@@H]3c3ccccc3)nc(C#Cc3ccc(Cl)s3)nc21
T
COc1ccc(CCNc2nc(C#Cc3ccccc3)nc3c2ncn3[C@H]2[C@H](O)[C@H](O)[C@@H]3C[C@@H]32)cc1O
F
Oc1ccc(CCNc2nc(C#Cc3ccccc3)nc3c2ncn3[C@H]2[C@H](O)[C@H](O)[C@@H]3C[C@@H]32)cc1O
F
Cc1cccc(CCNc2nc(C#Cc3ccc(Cl)s3)nc3c2ncn3[C@H]2[C@H](O)[C@H](O)[C@@H]3C[C@@H]32)c1
T

Qu. Is inhibition at least 40%? Consider COc1cc(CCNc2nc(C#Cc3ccc(Br)s3)nc3c2ncn3[C@H]2[C@H](O)[C@H](O)[C@@H]3C[C@@H]32)ccc1O
Ans. F

Qu. Is inhibition at least 40%? Consider O[C@@H]1[C@H](O)[C@@H]2C[C@@H]2[C@H]1n1cnc2c(NCCc3ccc(F)c(F)c3)nc(C#Cc3ccc(Cl)s3)nc21
Ans. T

Qu. Is inhibition at least 40%? Consider O[C@@H]1[C@H](O)[C@@H]2C[C@@H]2[C@H]1n1cnc2c(NCCc3cccc(Cl)c3)nc(C#Cc3ccc(Cl)s3)nc21
Ans. T

Qu. Is inhibition at least 40%? Consider O[C@@H]1[C@H](O)[C@@H]2C[C@@H]2[C@H]1n1cnc2c(NCCc3cccc(F)c3)nc(C#Cc3ccc(Cl)s3)nc21
Ans. T

Qu. Is inhibition at least 40%? Consider COc1cc(CCNc2nc(C#Cc3ccc(F)cc3)nc3c2ncn3[C@H]2[C@H](O)[C@H](O)[C@@H]3C[C@@H]32)ccc1O
Ans. T

---

# system: Adenosine receptor A1 (Homo sapiens)
# assay-explanation: Displacement of [3H]R-PIA from recombinant human A1AR expressed in HEK293 cell membranes at 10 uM measured after 60 mins by liquid scintillation counting method relative to control
Output satisfied for inhibition not less than 30%; output not satisfied otherwise.

Some solved cases for reference:
COc1cc(CCNc2nc(I)nc3c2ncn3[C@H]2[C@H](O)[C@H](O)[C@@H]3C[C@@H]32)ccc1O
satisfied
O[C@@H]1[C@H](O)[C@@H]2C[C@@H]2[C@H]1n1cnc2c(NCCc3ccccc3)nc(C#Cc3ccc(Cl)s3)nc21
not satisfied
Oc1ccc(CCNc2nc(C#Cc3ccccc3)nc3c2ncn3[C@H]2[C@H](O)[C@H](O)[C@@H]3C[C@@H]32)cc1
not satisfied
COc1cc(CCNc2nc(C#Cc3ccc(Br)s3)nc3c2ncn3[C@H]2[C@H](O)[C@H](O)[C@@H]3C[C@@H]32)ccc1O
not satisfied

With those in mind, consider the next compound.
Qu. Is inhibition at least 30%? Consider COc1cc(CCNc2nc(C#Cc3cccnc3)nc3c2ncn3[C@H]2[C@H](O)[C@H](O)[C@@H]3C[C@@H]32)ccc1O
Ans. satisfied

---

# system: UniProt Q61618
# Sequence (Q61618 whole entry): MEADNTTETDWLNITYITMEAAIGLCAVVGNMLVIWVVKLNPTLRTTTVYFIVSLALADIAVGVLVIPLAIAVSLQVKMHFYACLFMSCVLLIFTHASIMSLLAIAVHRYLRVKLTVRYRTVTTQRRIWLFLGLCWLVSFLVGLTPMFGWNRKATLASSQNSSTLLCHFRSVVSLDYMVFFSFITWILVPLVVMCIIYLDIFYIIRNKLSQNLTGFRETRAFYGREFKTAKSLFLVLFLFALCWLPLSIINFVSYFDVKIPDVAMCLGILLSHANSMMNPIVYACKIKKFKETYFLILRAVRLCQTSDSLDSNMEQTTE
measured-attribute: Ki (nM)
One number for each entry, in nM.

O[C@@H]1[C@H](O)[C@@H]2C[C@@H]2[C@H]1n1cnc2c(N[C@H]3C[C@@H]3c3ccccc3)nc(C#Cc3ccc(Cl)s3)nc21
1140
COc1cc(CCNc2nc(C#Cc3ccccc3F)nc3c2ncn3[C@H]2[C@H](O)[C@H](O)[C@@H]3C[C@@H]32)ccc1O
21.5
COc1cc(CCNc2nc(I)nc3c2ncn3[C@H]2[C@H](O)[C@H](O)[C@@H]3C[C@@H]32)ccc1O
92.5
Oc1ccc(CCNc2nc(C#Cc3ccccc3)nc3c2ncn3[C@H]2[C@H](O)[C@H](O)[C@@H]3C[C@@H]32)cc1F
61.6
O[C@@H]1[C@H](O)[C@@H]2C[C@@H]2[C@H]1n1cnc2c(NCCc3cccc(F)c3)nc(C#Cc3ccccc3)nc21
264
Oc1ccc(CCNc2nc(C#Cc3ccccc3)nc3c2ncn3[C@H]2[C@H](O)[C@H](O)[C@@H]3C[C@@H]32)cc1O
39.8

Could I get Ki for every one of these entries?
1. COc1cc(CCNc2nc(C#Cc3ccc(Br)s3)nc3c2ncn3[C@H]2[C@H](O)[C@H](O)[C@@H]3C[C@@H]32)ccc1O
2. COc1cc(CCNc2nc(C#Cc3ccc(F)cc3)nc3c2ncn3[C@H]2[C@H](O)[C@H](O)[C@@H]3C[C@@H]32)ccc1O
3. Nc1ccc(CCNc2nc(C#Cc3ccccc3)nc3c2ncn3[C@H]2[C@H](O)[C@H](O)[C@@H]3C[C@@H]32)cc1
4. O[C@@H]1[C@H](O)[C@@H]2C[C@@H]2[C@H]1n1cnc2c(NCCc3cccc(Cl)c3)nc(C#Cc3ccc(Cl)s3)nc21

Ans.
1. 26
2. 54.4
3. 60.4
4. 531

Could I get Ki for every one of these entries?
1. O[C@@H]1[C@H](O)[C@@H]2C[C@@H]2[C@H]1n1cnc2c(NCCc3cccc(F)c3)nc(C#Cc3ccc(Cl)s3)nc21
2. COc1cc(CCNc2nc(C#Cc3cccnc3)nc3c2ncn3[C@H]2[C@H](O)[C@H](O)[C@@H]3C[C@@H]32)ccc1O
3. O[C@@H]1[C@H](O)[C@@H]2C[C@@H]2[C@H]1n1cnc2c(NCCc3ccc(F)c(F)c3)nc(C#Cc3ccc(Cl)s3)nc21

Ans.
1: 488; 2: 155; 3: 2520

Could I get Ki for every one of these entries?
1. COc1cc(CCNc2nc(C#Cc3cccc(F)c3)nc3c2ncn3[C@H]2[C@H](O)[C@H](O)[C@@H]3C[C@@H]32)ccc1O
2. Oc1ccc(CCNc2nc(C#Cc3ccccc3)nc3c2ncn3[C@H]2[C@H](O)[C@H](O)[C@@H]3C[C@@H]32)cc1
3. O[C@@H]1[C@H](O)[C@@H]2C[C@@H]2[C@H]1n1cnc2c(NCCc3ccccc3)nc(C#Cc3ccccc3Cl)nc21
4. COc1ccc(CCNc2nc(C#Cc3ccccc3)nc3c2ncn3[C@H]2[C@H](O)[C@H](O)[C@@H]3C[C@@H]32)cc1OC
5. COc1cc(CCNc2nc(C#Cc3ccc(F)c(F)c3)nc3c2ncn3[C@H]2[C@H](O)[C@H](O)[C@@H]3C[C@@H]32)ccc1O

Ans.
1: 72.2; 2: 76.4; 3: 980; 4: 331; 5: 75

Could I get Ki for every one of these entries?
1. O[C@@H]1[C@H](O)[C@@H]2C[C@@H]2[C@H]1n1cnc2c(NCCc3ccccc3)nc(C#Cc3ccc(Cl)s3)nc21
2. O[C@@H]1[C@H](O)[C@@H]2C[C@@H]2[C@H]1n1cnc2c(NCCc3cccc(F)c3)nc(C#Cc3ccc(F)s3)nc21
3. COc1ccc(CCNc2nc(C#Cc3ccccc3)nc3c2ncn3[C@H]2[C@H](O)[C@H](O)[C@@H]3C[C@@H]32)cc1O

Ans.
1: 995; 2: 404; 3: 122

Could I get Ki for every one of these entries?
1. Cc1cccc(CCNc2nc(C#Cc3ccc(Cl)s3)nc3c2ncn3[C@H]2[C@H](O)[C@H](O)[C@@H]3C[C@@H]32)c1
2. COc1cc(CCNc2nc(C#Cc3ccc(Cl)s3)nc3c2ncn3[C@H]2[C@H](O)[C@H](O)[C@@H]3C[C@@H]32)ccc1O

Ans.
1: 675; 2: 74.7
